- tested_system: Luciferin 4-monooxygenase (Photinus pyralis)
- protocol_description: CCTE_Simmons_QuantiLum_inhib_2: CCTE's Firefly Luciferase Inhibition Assay, Simmons Lab (AID 2283767);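 as to AC50: potency for inhibitors that lower luciferase luminescence relative to DMSO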
Inconclusive results are not listed. Active and inactive are the calls of the source. The calls were made as follows: active = hit-call score of the fitted dose curve at least 0.9, where 1 is the maximum; inconclusive = response in the unintended direction; inactive = score below 0.9.
attribute_measured: AC50

>>> measurement("CSC1=N[C@@](C)(c2ccccc2)C(=O)N1Nc1ccccc1")
"inactive"
>>> measurement("CCOP(=O)(NC(C)C)Oc1ccc(SC)c(C)c1 (configuration not stated)")
"inactive"
>>> measurement("CCC(=NOC/C=C/Cl)C1=C(O)CC(C2CCOCC2)CC1=O (configuration not stated)")
"inactive"
>>> measurement("CCOP(=S)(Oc1cnc(C(C)(C)C)nc1)OC(C)C (configuration not stated)")
"61.8 µM (active)"
>>> measurement("CCC(=O)Nc1ccc(Cl)c(Cl)c1")
"inactive"
>>> measurement("CCCOCC(=Nc1ccc(Cl)cc1C(F)(F)F)n1ccnc1")
"36.8 µM (active)"
>>> measurement("CCCSP(=O)(OCC)SCCC")
"inactive"
